# Tested on: LLC (Lewis lung carcinoma) cell line
# method.description: Cytotoxic assay, in vitro LLC tumor cell assay (SRB method)
# assay.setup: SRB method
value.type: 50% Growth Inhibition (ED50) (µg/mL)
Answer in µg/mL, number only, no unit symbol.

Take a look at these entries with their results.
* CC(C)=CCOc1ccc(C2=C(CC(C)C)C(=O)NC2=O)cc1 [Compound 2] | 3.6
* CC(C)=CCOc1ccc(C2=C(CC(C)C)C(=O)N(O)C2=O)cc1 [Compound 3] | 7.5

q: Which 50% Growth Inhibition (ED50) reading was recorded for the molecule COc1cccc2c1C(=O)c1c(O)c3c(c(O)c1C2=O)C[C@@](O)(C(=O)CO)C[C@@H]3O[C@H]1C[C@H](N)[C@H](O)[C@H](C)O1 [Adriamycin] ?
a: 0.14
